Data credit: patent US20110015119A1

- System: Enterococcus faecalis 848 (VRE, Van A)
- Assay protocol: MIC by broth microdilution, EFc 848
- Format: cell-based
- Cond: Enterococcus faecalis, VRE, read-out: MIC E FC 848, Enterococcus faecalis 848 (VRE, Van A); class symbols
Metric name: MIC

Molecule	Experimental value
CCCCCOc1ccc(S(=O)(=O)NCCCCNC(=O)Oc2cc(O)c3c(c2)[C@@H](C(=O)NC2C4CC5CC(C4)CC2C5)NC(=O)[C@H]2NC(=O)[C@H](NC(=O)[C@@H]4NC(=O)[C@H](CC(N)=O)NC(=O)[C@H](NC(=O)[C@@H](CC(C)C)NC)[C@H](O)c5ccc(c(Cl)c5)Oc5cc4cc(c5O[C@@H]4O[C@H](CO)[C@@H](O)[C@H](O)[C@H]4O[C@H]4C[C@](C)(N)[C@H](O)[C@H](C)O4)Oc4ccc(cc4Cl)[C@H]2O)c2ccc(O)c-3c2)cc1 (stereo partly shown)	8 to 16 µg/mL

====

Listing: MIC of selected compounds
- System: Staphylococcus aureus 2012 (VISA)
- Assay protocol: MIC by broth microdilution, SA 2012
- Assay type: cell-based
- Cond: Staphylococcus aureus 2012 (VISA); class symbols; read-out: MIC SA 2012

Compound	Study target	MIC
CCCCCCc1ccc(S(=O)(=O)NCCCCCCNCc2c(O)cc3c(c2O)-c2cc(ccc2O)[C@H]2NC(=O)[C@@H]4NC(=O)[C@H](CC(N)=O)NC(=O)[C@H](NC(=O)[C@@H](CC(C)C)NC)[C@H](O)c5ccc(c(Cl)c5)Oc5cc4cc(c5O[C@@H]4O[C@H](CO)[C@@H](O)[C@H](O)[C@H]4O[C@H]4C[C@](C)(NC(=O)[C@H](N)C(C)C)[C@H](O)[C@H](C)O4)Oc4ccc(cc4Cl)[C@@H](O)[C@H](NC2=O)C(=O)N[C@@H]3C(=O)O)cc1 (atropisomer, axis not shown)	Staphylococcus aureus 2012 (VISA)	0.01 to 0.5 µg/mL
CCCCCCc1ccc(S(=O)(=O)NCCCCCCNCc2c(O)cc3c(c2O)-c2cc(ccc2O)[C@H]2NC(=O)[C@@H]4NC(=O)[C@H](CC(N)=O)NC(=O)[C@H](NC(=O)[C@@H](CC(C)C)NC)[C@H](O)c5ccc(c(Cl)c5)Oc5cc4cc(c5O[C@@H]4O[C@H](CO)[C@@H](O)[C@H](O)[C@H]4O[C@H]4C[C@](C)(NC(=O)[C@@H](C)N)[C@H](O)[C@H](C)O4)Oc4ccc(cc4Cl)[C@@H](O)[C@H](NC2=O)C(=O)N[C@@H]3C(=O)O)cc1 (atropisomer, axis not shown)	Staphylococcus aureus 2012 (VISA)	0.01 to 0.5 µg/mL

====

- Tested on: Streptococcus pyogenes 712
- Assay protocol: MIC by broth microdilution, SPY 712
- Type: cell-based
- Cond: Streptococcus pyogenes, 712, read-out: MIC S PYO 712

Molecule	Study target	MIC
CCCCc1ccc(NC(=O)Oc2cc(O)c3c(c2)[C@@H](C(=O)NC2C4CC5CC(C4)CC2C5)NC(=O)[C@H]2NC(=O)[C@H](NC(=O)[C@@H]4NC(=O)[C@H](CC(N)=O)NC(=O)[C@H](NC(=O)[C@@H](CC(C)C)NC)[C@H](O)c5ccc(c(Cl)c5)Oc5cc4cc(c5O[C@@H]4O[C@H](CO)[C@@H](O)[C@H](O)[C@H]4O[C@H]4C[C@](C)(N)[C@H](O)[C@H](C)O4)Oc4ccc(cc4Cl)[C@H]2O)c2ccc(O)c-3c2)cc1 (some centres unmarked)	Streptococcus pyogenes 712	0.01 to 0.5 µg/mL
CCCCCOCCNC(=O)Oc1cc(O)c2c(c1)[C@@H](C(=O)O)NC(=O)[C@H]1NC(=O)[C@H](NC(=O)[C@@H]3NC(=O)[C@H](CC(N)=O)NC(=O)[C@H](NC(=O)[C@@H](CC(C)C)NC)[C@H](O)c4ccc(c(Cl)c4)Oc4cc3cc(c4O[C@@H]3O[C@H](CO)[C@@H](O)[C@H](O)[C@H]3O[C@H]3C[C@](C)(N)[C@H](O)[C@H](C)O3)Oc3ccc(cc3Cl)[C@H]1O)c1ccc(O)c-2c1 (atropisomer, axis not shown)	Streptococcus pyogenes 712	0.5 to 1 µg/mL
